Parameter survival: see the listing below.
System: Wild type
Experiment: S. aureus survival, RN4220 and DeltatarO strains – OD600, teichoic acid synthesis inhibitors, primary screen (AID 463173)
Conditions: S. aureus RN4220 wild type/DeltatarO growth, OD600, 18 h, hits give low values, screened at 18.75 µg/mL (by protocol)
About 1,700 (3.3%) of roughly 52,000 compounds were called active. This is one part of a sample in which actives are shown more often than they occur.
metric.name: survival (%)

>>> reported_value("CCc1ccc(NC(=O)CCn2cnc3ccccc3c2=O)cc1")
72
>>> reported_value("COc1cccc(CSc2nnc(-c3ccc(F)cc3)o2)c1")
113
>>> reported_value("COc1ccc(CCNC(c2ccc(F)cc2)c2nnc(-c3ccccc3Cl)o2)cc1OC (configuration not stated)")
49
>>> reported_value("COc1ccc(Nc2nc(-c3ccc(C)cc3)nc3ccccc23)c(OC)c1")
70
>>> reported_value("Cc1cccc(-c2noc(-c3cccnc3NCc3ccccc3Cl)n2)c1")
79
>>> reported_value("CCc1ccc(OCC(=O)Nc2ccc3c(c2)c2ccccc2n3CC)c(Br)c1")
-6
>>> reported_value("COc1ccc(-c2nnc(SCc3cccc(Cl)c3)o2)cc1")
13
>>> reported_value("CCn1c2ccccc2c2cc(NC(=O)COc3ccc(C)cc3C)ccc21")
8
>>> reported_value("CC1CCCCN1CCCNC(=O)Cn1ncc2c3ccccc3n(Cc3ccccc3F)c2c1=O (configuration not stated)")
90
>>> reported_value("CCOC(=O)c1c(-c2ccccc2)oc2ccc(NS(=O)(=O)c3ccc(C)cc3)cc12")
28
>>> reported_value("COc1cccc(OCc2nnc(SCC(=O)O)o2)c1")
98
>>> reported_value("CCS(=O)(=O)c1ncc(Cl)c(C(=O)Nc2ccccc2)n1")
70
>>> reported_value("CCN(c1ccccc1)S(=O)(=O)c1ccc(NC(=O)c2nc(SC(C)C)ncc2Cl)cc1")
81
>>> reported_value("CCOC(=O)c1c(-c2ccccc2)oc2ccc(NS(=O)(=O)c3ccc(OC)cc3)cc12")
66
>>> reported_value("CCc1ccc(S(=O)(=O)Nc2ccc3oc(C)c(C(=O)OCCOC)c3c2)cc1")
60
>>> reported_value("Fc1ccc(NCc2ccccc2-c2nnc(-c3ccccc3Cl)o2)cc1")
89
>>> reported_value("Cc1nc2c(cnn2-c2ccccc2)c(=O)n1-c1ccccc1")
126
>>> reported_value("CCS(=O)(=O)c1ncc(Cl)c(C(=O)Nc2ccc(S(=O)(=O)N(C)c3ccccc3)cc2)n1")
8
>>> reported_value("CCOC(=O)c1ccc(CN(Cc2ccc(Br)cc2)S(=O)(=O)c2cccc(C(F)(F)F)c2)cc1")
72
>>> reported_value("Cc1ccccc1C(=O)Nc1ccc(C(=O)OCc2cc(=O)n3nc(C(C)C)sc3n2)cc1")
65
>>> reported_value("CCc1ccccc1NC(=O)COC(=O)c1cn(CC)c2nc(C)ccc2c1=O")
83
>>> reported_value("CCOC(=O)c1cc2c(=O)n3ccccc3nc2n(Cc2ccco2)c1=NC(=O)c1ccccc1OC")
64
>>> reported_value("CCc1nc2c(cnn2-c2ccc(C)cc2)c(=O)n1-c1ccc(C)cc1")
18
>>> reported_value("COc1cc2nc(NC(=O)c3ccc(S(=O)(=O)N4CCOCC4)cc3)sc2cc1OC")
79
>>> reported_value("CCCCOC(=O)c1c(C)oc2ccc(NS(=O)(=O)c3ccc(F)cc3C)cc12")
1
>>> reported_value("CCOC(=O)c1c(-c2ccccc2)oc2ccc(NS(=O)(=O)c3ccccc3)cc12")
7
>>> reported_value("Cc1ccc(-c2cc(C(=O)NCc3ccccc3)c3c(-c4ccc(C)cc4)[nH]nc3n2)cc1")
75
>>> reported_value("CC(C)(C)OC(=O)N1CCC(c2c(C(=O)NCCN3CCOCC3)cnn2-c2cccc(F)c2)CC1")
120
>>> reported_value("Fc1ccc(C(NCCc2ccc(Cl)cc2)c2nnc(-c3ccccc3Cl)o2)cc1 (configuration not stated)")
11
>>> reported_value("CCOc1ccc(S(=O)(=O)Nc2ccc3oc4c(c3c2)CC(C)CC4)cc1 (configuration not stated)")
60
>>> reported_value("COc1cc(Cn2c(=O)sc3ccccc32)ccc1OCCC(C)C")
-4
>>> reported_value("Fc1ccc(C(Nc2ccccc2Cl)c2nnc(-c3ccccc3Cl)o2)cc1 (configuration not stated)")
89
>>> reported_value("Cc1ccc(CCNC(c2ccc(F)cc2)c2nnc(-c3ccccc3Cl)o2)cc1 (configuration not stated)")
0
>>> reported_value("CCn1c2ccccc2c2cc(NC(=O)COC)ccc21")
108
>>> reported_value("Cc1cc(F)ccc1S(=O)(=O)Nc1ccc2oc3c(c2c1)CC(C)CC3 (configuration not stated)")
-6
>>> reported_value("O=C(NCc1ccccc1Cl)c1cc2c(s1)-c1ccccc1SC2")
74
>>> reported_value("CCCc1nn2c(=O)cc(COC(=O)c3ccc(NC(=O)COc4ccccc4F)cc3)nc2s1")
121
>>> reported_value("CCc1ccc(OCC(=O)Nc2ccc3c(c2)c2ccccc2n3CC)cc1")
69
>>> reported_value("COc1cc(Nc2nc(-c3ccc(OC)c(OC)c3)nc3ccccc23)cc(OC)c1")
0
>>> reported_value("COc1ccc(-n2c(C)nc3c(cnn3-c3ccc(C)c(C)c3)c2=O)cc1Cl")
118
>>> reported_value("O=S(=O)(c1ccccc1)c1nc(-c2cccs2)oc1SCc1ccc(F)cc1")
61
>>> reported_value("CCOC(=O)c1ccc(-n2c(C)nc3c(cnn3-c3ccc(Cl)cc3)c2=O)cc1")
71
